# measured_on: MsuE (Pseudomonas fluorescens)
# Sequence (Q3K9A2 1-187): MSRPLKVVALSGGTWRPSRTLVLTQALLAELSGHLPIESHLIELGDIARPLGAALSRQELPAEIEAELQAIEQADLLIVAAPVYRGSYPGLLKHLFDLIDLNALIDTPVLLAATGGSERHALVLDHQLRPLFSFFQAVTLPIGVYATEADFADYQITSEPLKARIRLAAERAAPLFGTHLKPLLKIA
# test_method_notes: Fluorometric equilibrium titration of MsuE with oxidized FMN
Where a name gives a salt, the structure may show the parent alone.
readout_name: Kd (nM)
Express your answer in nM, writing the number without its unit.

### Prompt Entry under review: Cc1cc2nc3c(=O)[nH]c(=O)nc-3n(C[C@H](O)[C@H](O)[C@H](O)COP(=O)(O)O)c2cc1C [FMN, riboflavin 5´-monophosphate sodium salt] . Reported Kd?
### Response 540
